Origin of measurements: patent US8546381B2

- systemTested: human recombinant histamine H2 receptor (Homo sapiens, UniProt P25021)
- Construct: expressed in transfected cells; host or cells: CHO-K1 cells
- Sequence (P25021 whole entry): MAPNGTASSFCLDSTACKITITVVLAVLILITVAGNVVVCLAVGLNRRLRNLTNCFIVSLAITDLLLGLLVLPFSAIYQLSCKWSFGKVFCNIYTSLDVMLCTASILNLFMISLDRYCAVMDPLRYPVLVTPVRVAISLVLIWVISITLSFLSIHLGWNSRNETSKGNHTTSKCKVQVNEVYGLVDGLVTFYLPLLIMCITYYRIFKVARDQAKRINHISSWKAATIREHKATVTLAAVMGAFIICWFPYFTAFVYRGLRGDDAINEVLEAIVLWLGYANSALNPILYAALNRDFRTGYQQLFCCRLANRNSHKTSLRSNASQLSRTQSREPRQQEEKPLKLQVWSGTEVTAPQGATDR
- experimentNotes: Histamine H2 radioligand binding ([125I]Aminopotentidine)
- cond: compound at 1 μM; inhibition of specific [125I]Aminopotentidine binding; read-out: Histamine Binding (1 μM) H2, Percentage Inhibition
Each entry gets False if its inhibition at 1 µM stays under 20%, and True if its inhibition at 1 µM is 20% or above.

>  <compound>
C/C(=C/n1c2c(c3ccccc31)[C@@H]1CC[C@H](C2)N1C)c1ccc(F)cc1 [Compound 121]

>  <assignedCategory>
True

$$$$
>  <compound>
Cc1ccc2c(c1)c1c(n2CC(=O)N2CCCCC2)CC2CCC1N2C (stereo not drawn) [Compound 93]

>  <assignedCategory>
False

$$$$
>  <compound>
CN1C2CCC1c1c(n(CCc3cccnc3)c3ccc(Cl)cc13)C2 (stereo not drawn) [Compound 80]

>  <assignedCategory>
False

$$$$
>  <compound>
COc1ccc(C(C)(O)Cn2c3c(c4cc(Cl)ccc42)C2CCC(C3)N2C)cc1F (stereo not drawn) [Compound 160]

>  <assignedCategory>
True

$$$$
>  <compound>
CN1[C@H]2CC[C@@H]1c1c(n(CCc3ccc(F)cc3)c3ccc(F)cc13)C2 [Compound 95]

>  <assignedCategory>
False

$$$$
>  <compound>
Cc1ccc2c(c1)c1c(n2CC(C)(O)c2ccc(Cl)cc2)CC2CCC1N2C (stereo not drawn) [Compound 54]

>  <assignedCategory>
True

$$$$
>  <compound>
CN1C2CCC1c1c(n(CCC(=O)O)c3ccc(Cl)cc13)C2 (stereo not drawn) [Compound 72]

>  <assignedCategory>
False

$$$$
>  <compound>
Cc1ccc(CCn2c3c(c4ccccc42)C2CCC(C3)N2C)cn1 (stereo not drawn) [Compound 92]

>  <assignedCategory>
False

$$$$
>  <compound>
C/C(=C\n1c2c(c3cc(C)ccc31)C1CCC(C2)N1C)c1ccc(Cl)cc1 (stereo not drawn) [Compound 116]

>  <assignedCategory>
True

$$$$

====

Overview of recorded inhibition at 1 µM for various molecules
- systemTested: human recombinant adrenergic α2A receptor (Homo sapiens)
- Construct: expressed in transfected cells; host or cells: insect Sf9 cells
- experimentNotes: Adrenergic α2A radioligand binding ([3H]MK-912)
- cond: 1 μM; read-out: Adrenergic α2A, inhibition of ligand binding (1 μM)

>  <molecule>
CCOC(=O)CCn1c2c(c3cc(Cl)ccc31)C1CCC(C2)N1C (stereo not drawn)

>  <systemTested>
human recombinant adrenergic α2A receptor (Homo sapiens)

>  <inhibition at 1 µM>
3%

$$$$
>  <molecule>
C/C(=C/n1c2c(c3ccccc31)[C@@H]1CC[C@H](C2)N1C)c1ccc(F)cc1

>  <systemTested>
human recombinant adrenergic α2A receptor (Homo sapiens)

>  <inhibition at 1 µM>
55%

$$$$
>  <molecule>
CN1C2CCC1c1c(n(CCC#N)c3ccc(Cl)cc13)C2 (stereo not drawn)

>  <systemTested>
human recombinant adrenergic α2A receptor (Homo sapiens)

>  <inhibition at 1 µM>
42%

$$$$

====

- systemTested: human recombinant adrenergic α2A receptor (Homo sapiens, UniProt P08913)
- Construct: expressed in transfected cells; host or cells: insect Sf9 cells
- Sequence (P08913 whole entry): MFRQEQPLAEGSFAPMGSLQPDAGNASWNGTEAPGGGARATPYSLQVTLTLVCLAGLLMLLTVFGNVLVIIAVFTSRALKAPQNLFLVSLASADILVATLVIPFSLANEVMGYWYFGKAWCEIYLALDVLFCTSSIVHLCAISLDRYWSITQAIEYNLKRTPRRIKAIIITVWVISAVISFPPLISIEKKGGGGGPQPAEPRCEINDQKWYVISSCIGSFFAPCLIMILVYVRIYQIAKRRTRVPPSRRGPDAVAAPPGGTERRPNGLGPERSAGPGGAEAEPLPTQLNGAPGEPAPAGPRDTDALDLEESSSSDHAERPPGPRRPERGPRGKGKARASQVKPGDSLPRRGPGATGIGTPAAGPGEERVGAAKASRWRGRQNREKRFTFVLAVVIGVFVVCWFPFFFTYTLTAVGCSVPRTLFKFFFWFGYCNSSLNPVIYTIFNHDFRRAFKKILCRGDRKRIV
- experimentNotes: Adrenergic α2A radioligand binding ([3H]MK-912)
- cond: 1 μM; read-out: Adrenergic α2A, inhibition of ligand binding (1 μM)

>  <compound>
Cc1ccc2c(c1)c1c(n2CCc2cccnc2)CC2CCC1N2C (stereo not drawn)

>  <inhibition at 1 µM, %>
63

$$$$
>  <compound>
Cc1ccc2c(c1)c1c(n2CCc2cncc(Cl)c2)CC2CCC1N2C (stereo not drawn)

>  <inhibition at 1 µM, %>
32

$$$$
>  <compound>
Cc1ccc2c(c1)c1c(n2CC(=O)N2CCCCC2)CC2CCC1N2C (stereo not drawn)

>  <inhibition at 1 µM, %>
4

$$$$
>  <compound>
CN1C2CCC1c1c(n(CCC(N)=O)c3ccc(Cl)cc13)C2 (stereo not drawn)

>  <inhibition at 1 µM, %>
6

$$$$
>  <compound>
CN1C2CCC1c1c(n(C#Cc3ccc(Cl)cc3)c3ccc(Cl)cc13)C2 (stereo not drawn)

>  <inhibition at 1 µM, %>
82

$$$$
>  <compound>
Cc1ccc2c(c1)c1c(n2C#Cc2ccc(F)cc2)CC2CCC1N2C (stereo not drawn)

>  <inhibition at 1 µM, %>
61

$$$$
>  <compound>
CN1C2CCC1c1c(n(CCC(=O)N3CCNC(=O)C3)c3ccc(Cl)cc13)C2 (stereo not drawn)

>  <inhibition at 1 µM, %>
8

$$$$
>  <compound>
CN1C2CCC1c1c(n(CCc3cccnc3)c3ccc(Cl)cc13)C2 (stereo not drawn)

>  <inhibition at 1 µM, %>
21

$$$$
>  <compound>
CN1C2CCC1c1c(n(CCC(=O)N3CCS(=O)(=O)CC3)c3ccc(Cl)cc13)C2 (stereo not drawn)

>  <inhibition at 1 µM, %>
-10

$$$$

====

- systemTested: human recombinant adrenergic α1D receptor (Homo sapiens)
- Construct: expressed in transfected cells; host or cells: HEK-293 cells
- Sequence (P25100 1-572): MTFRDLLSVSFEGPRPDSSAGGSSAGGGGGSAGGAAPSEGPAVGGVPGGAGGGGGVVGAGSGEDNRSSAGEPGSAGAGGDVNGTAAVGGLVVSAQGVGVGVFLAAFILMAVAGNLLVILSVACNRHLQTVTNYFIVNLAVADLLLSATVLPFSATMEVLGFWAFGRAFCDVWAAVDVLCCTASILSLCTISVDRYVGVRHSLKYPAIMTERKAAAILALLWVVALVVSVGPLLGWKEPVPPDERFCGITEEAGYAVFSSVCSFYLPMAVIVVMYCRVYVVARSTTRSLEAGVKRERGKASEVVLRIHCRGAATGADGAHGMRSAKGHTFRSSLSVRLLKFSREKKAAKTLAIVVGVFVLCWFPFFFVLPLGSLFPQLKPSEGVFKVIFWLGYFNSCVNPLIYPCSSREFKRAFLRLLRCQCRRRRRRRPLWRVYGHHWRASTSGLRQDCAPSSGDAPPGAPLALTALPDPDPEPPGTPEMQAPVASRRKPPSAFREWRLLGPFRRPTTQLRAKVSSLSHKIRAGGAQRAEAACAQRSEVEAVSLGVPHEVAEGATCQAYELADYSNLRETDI
- experimentNotes: Adrenergic α1D radioligand binding ([3H]Prozosin)
- cond: 1 μM; read-out: Adrenergic α1D, inhibition of ligand binding (1 μM)
Each entry gets not satisfied if its inhibition at 1 µM stays under 20%, and satisfied if its inhibition at 1 µM is 20% or above.

>  <compound>
Cc1ccc2c(c1)c1c(n2CCCc2ccc(Cl)cc2)CC2CCC1N2C (stereo not drawn)

>  <systemTested>
human recombinant adrenergic α1D receptor (Homo sapiens)

>  <assignedCategory>
satisfied

$$$$
>  <compound>
CN1C2CCC1c1c(n(CCC(N)=O)c3ccc(Cl)cc13)C2 (stereo not drawn)

>  <systemTested>
human recombinant adrenergic α1D receptor (Homo sapiens)

>  <assignedCategory>
not satisfied

$$$$
>  <compound>
CN1C2CCC1c1c(n(CCC(=O)N3CCSCC3)c3ccc(Cl)cc13)C2 (stereo not drawn)

>  <systemTested>
human recombinant adrenergic α1D receptor (Homo sapiens)

>  <assignedCategory>
not satisfied

$$$$
>  <compound>
Cc1ccc(CCn2c3c(c4ccccc42)C2CCC(C3)N2C)cn1 (stereo not drawn)

>  <systemTested>
human recombinant adrenergic α1D receptor (Homo sapiens)

>  <assignedCategory>
not satisfied

$$$$
>  <compound>
COc1ccc(C(C)(O)Cn2c3c(c4cc(Cl)ccc42)C2CCC(C3)N2C)cc1F (stereo not drawn)

>  <systemTested>
human recombinant adrenergic α1D receptor (Homo sapiens)

>  <assignedCategory>
not satisfied

$$$$
>  <compound>
C/C(=C/n1c2c(c3ccccc31)[C@@H]1CC[C@H](C2)N1C)c1ccc(F)cc1

>  <systemTested>
human recombinant adrenergic α1D receptor (Homo sapiens)

>  <assignedCategory>
satisfied

$$$$
>  <compound>
Cc1ccc2c(c1)c1c(n2CC(C)(O)c2ccc(Cl)cc2)CC2CCC1N2C (stereo not drawn)

>  <systemTested>
human recombinant adrenergic α1D receptor (Homo sapiens)

>  <assignedCategory>
satisfied

$$$$
>  <compound>
Cc1ccc2c(c1)c1c(n2CCc2ccc(C)nc2)CC2CCC1N2C (stereo not drawn)

>  <systemTested>
human recombinant adrenergic α1D receptor (Homo sapiens)

>  <assignedCategory>
satisfied

$$$$
>  <compound>
CC(=O)N1CCN(C(=O)CCn2c3c(c4cc(Cl)ccc42)C2CCC(C3)N2C)CC1 (stereo not drawn)

>  <systemTested>
human recombinant adrenergic α1D receptor (Homo sapiens)

>  <assignedCategory>
not satisfied

$$$$
>  <compound>
Cc1ccc(C(O)Cn2c3c(c4cc(Cl)ccc42)C2CCC(C3)N2C)cn1 (stereo not drawn)

>  <systemTested>
human recombinant adrenergic α1D receptor (Homo sapiens)

>  <assignedCategory>
satisfied

$$$$
>  <compound>
CCOC(=O)CCn1c2c(c3cc(Cl)ccc31)C1CCC(C2)N1C (stereo not drawn)

>  <systemTested>
human recombinant adrenergic α1D receptor (Homo sapiens)

>  <assignedCategory>
satisfied

$$$$
>  <compound>
CN1[C@@H]2CC[C@H]1c1c(n(CC(=O)N3CCCCC3)c3ccccc13)C2

>  <systemTested>
human recombinant adrenergic α1D receptor (Homo sapiens)

>  <assignedCategory>
satisfied

$$$$
>  <compound>
CN1C2CCC1c1c(n(CCC(=O)O)c3ccc(Cl)cc13)C2 (stereo not drawn)

>  <systemTested>
human recombinant adrenergic α1D receptor (Homo sapiens)

>  <assignedCategory>
not satisfied

$$$$
>  <compound>
CN1C2CCC1c1c(n(CCC#N)c3ccc(Cl)cc13)C2 (stereo not drawn)

>  <systemTested>
human recombinant adrenergic α1D receptor (Homo sapiens)

>  <assignedCategory>
satisfied

$$$$
>  <compound>
CN1[C@H]2CC[C@@H]1c1c(n(CCc3ccc(F)cc3)c3ccc(F)cc13)C2

>  <systemTested>
human recombinant adrenergic α1D receptor (Homo sapiens)

>  <assignedCategory>
satisfied

$$$$
>  <compound>
Cc1ccc2c(c1)c1c(n2CCc2cccnc2)CC2CCC1N2C (stereo not drawn)

>  <systemTested>
human recombinant adrenergic α1D receptor (Homo sapiens)

>  <assignedCategory>
satisfied

$$$$
>  <compound>
CN1C2CCC1c1c(n(CCc3ccc(Cl)cc3)c3ccc(F)cc13)C2 (stereo not drawn)

>  <systemTested>
human recombinant adrenergic α1D receptor (Homo sapiens)

>  <assignedCategory>
satisfied

$$$$
>  <compound>
COc1ccc(CCn2c3c(c4cc(Cl)ccc42)C2CCC(C3)N2C)cc1 (stereo not drawn)

>  <systemTested>
human recombinant adrenergic α1D receptor (Homo sapiens)

>  <assignedCategory>
not satisfied

$$$$
